# test.target: HER2 INS YVMA (Homo sapiens, UniProt P04626, INS775YVMA)
# Sequence (P04626 with tags, fused parts or gaps INS775YVMA): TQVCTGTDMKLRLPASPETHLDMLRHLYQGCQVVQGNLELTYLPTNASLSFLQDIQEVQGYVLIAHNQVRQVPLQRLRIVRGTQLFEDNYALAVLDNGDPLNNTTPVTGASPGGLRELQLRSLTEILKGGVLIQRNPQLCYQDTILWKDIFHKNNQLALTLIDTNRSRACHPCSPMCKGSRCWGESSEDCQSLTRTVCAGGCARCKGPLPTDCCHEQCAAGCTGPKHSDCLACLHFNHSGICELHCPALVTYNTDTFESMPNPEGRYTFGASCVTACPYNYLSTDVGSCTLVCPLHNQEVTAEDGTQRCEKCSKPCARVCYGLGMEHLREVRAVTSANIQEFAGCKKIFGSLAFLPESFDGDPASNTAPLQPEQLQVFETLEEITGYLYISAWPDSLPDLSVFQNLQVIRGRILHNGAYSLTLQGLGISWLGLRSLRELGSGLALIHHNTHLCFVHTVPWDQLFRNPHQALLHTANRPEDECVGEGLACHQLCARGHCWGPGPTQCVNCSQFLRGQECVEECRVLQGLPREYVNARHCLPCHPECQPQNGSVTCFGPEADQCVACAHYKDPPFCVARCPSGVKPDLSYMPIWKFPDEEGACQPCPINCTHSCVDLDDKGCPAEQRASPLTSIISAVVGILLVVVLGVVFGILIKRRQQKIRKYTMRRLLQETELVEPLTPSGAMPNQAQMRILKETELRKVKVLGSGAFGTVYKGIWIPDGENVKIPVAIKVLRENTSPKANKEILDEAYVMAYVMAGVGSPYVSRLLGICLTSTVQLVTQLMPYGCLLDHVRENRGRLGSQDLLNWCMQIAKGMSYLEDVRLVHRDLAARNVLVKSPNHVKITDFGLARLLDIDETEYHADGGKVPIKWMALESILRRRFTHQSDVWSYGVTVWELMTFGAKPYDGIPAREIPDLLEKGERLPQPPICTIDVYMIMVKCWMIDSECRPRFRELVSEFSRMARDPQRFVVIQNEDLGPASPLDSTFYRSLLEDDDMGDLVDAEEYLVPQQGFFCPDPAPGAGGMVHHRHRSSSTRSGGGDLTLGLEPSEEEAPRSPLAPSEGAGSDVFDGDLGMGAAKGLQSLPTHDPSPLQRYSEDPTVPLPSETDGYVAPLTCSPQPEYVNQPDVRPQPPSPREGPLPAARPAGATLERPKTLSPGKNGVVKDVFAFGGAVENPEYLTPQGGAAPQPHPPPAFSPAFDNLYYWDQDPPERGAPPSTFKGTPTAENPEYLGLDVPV
# assay.procedure: Lance Kinase Activity Assay, Her2 Exon 20 InsYVMA
# condition.parameters: biochemical Lance assay
pIC50: −log10 of the molar value.
Measured pIC50 of individual entries

compound | test.target | value
C=CC(=O)Nc1cc(-c2c(-c3cnn(C)c3)[nH]c3ncc(-c4cnn(CCN(C)C)c4)cc23)ccc1C | HER2 INS YVMA (Homo sapiens, UniProt P04626, INS775YVMA) | 6.00 to 6.30

Fill blank: measured pIC50 of the compound C=CC(=O)Nc1cc(-c2c(-c3cnn(C)c3)[nH]c3ncc(C(=O)OC(C)C)cc23)cc(F)c1C [Example 2, 2,2,2-trifluoroacetate] is ____.
≥ 7.30

Try C=CC(=O)Nc1cc(-c2c(-c3cnn(C)c3)[nH]c3ncc(C(=O)OC(C)C)c(C)c23)ccc1C next.
6.30 to 7.00

Now the same for C=CC(=O)Nc1cc(-c2c(-c3cnn(C)c3)[nH]c3ncc(-c4cnn(C)c4C)cc23)ccc1C
≥ 7.30

Same thing, different compound: C=CC(=O)Nc1cc(-c2c(-c3cnn(CC)c3)[nH]c3ncc(C(=O)OC(C)C)cc23)cc(F)c1C
7.00 to 7.30

Do the same for C=CC(=O)Nc1cc(-c2c(-c3cnn(C)c3)[nH]c3ncc(-c4ccnn4C)cc23)ccc1C please
6.30 to 7.00

Next up: C=CC(=O)Nc1cc(-c2c(-c3cnn(C)c3)[nH]c3ncc(-c4cnn(CC(C)C)c4)cc23)ccc1C
6.30 to 7.00

----------
# test.target: EGFR T790M L858R (Homo sapiens, UniProt P00533, L858R/T790M)
# Sequence (P00533 25-1210 T790M/L858R): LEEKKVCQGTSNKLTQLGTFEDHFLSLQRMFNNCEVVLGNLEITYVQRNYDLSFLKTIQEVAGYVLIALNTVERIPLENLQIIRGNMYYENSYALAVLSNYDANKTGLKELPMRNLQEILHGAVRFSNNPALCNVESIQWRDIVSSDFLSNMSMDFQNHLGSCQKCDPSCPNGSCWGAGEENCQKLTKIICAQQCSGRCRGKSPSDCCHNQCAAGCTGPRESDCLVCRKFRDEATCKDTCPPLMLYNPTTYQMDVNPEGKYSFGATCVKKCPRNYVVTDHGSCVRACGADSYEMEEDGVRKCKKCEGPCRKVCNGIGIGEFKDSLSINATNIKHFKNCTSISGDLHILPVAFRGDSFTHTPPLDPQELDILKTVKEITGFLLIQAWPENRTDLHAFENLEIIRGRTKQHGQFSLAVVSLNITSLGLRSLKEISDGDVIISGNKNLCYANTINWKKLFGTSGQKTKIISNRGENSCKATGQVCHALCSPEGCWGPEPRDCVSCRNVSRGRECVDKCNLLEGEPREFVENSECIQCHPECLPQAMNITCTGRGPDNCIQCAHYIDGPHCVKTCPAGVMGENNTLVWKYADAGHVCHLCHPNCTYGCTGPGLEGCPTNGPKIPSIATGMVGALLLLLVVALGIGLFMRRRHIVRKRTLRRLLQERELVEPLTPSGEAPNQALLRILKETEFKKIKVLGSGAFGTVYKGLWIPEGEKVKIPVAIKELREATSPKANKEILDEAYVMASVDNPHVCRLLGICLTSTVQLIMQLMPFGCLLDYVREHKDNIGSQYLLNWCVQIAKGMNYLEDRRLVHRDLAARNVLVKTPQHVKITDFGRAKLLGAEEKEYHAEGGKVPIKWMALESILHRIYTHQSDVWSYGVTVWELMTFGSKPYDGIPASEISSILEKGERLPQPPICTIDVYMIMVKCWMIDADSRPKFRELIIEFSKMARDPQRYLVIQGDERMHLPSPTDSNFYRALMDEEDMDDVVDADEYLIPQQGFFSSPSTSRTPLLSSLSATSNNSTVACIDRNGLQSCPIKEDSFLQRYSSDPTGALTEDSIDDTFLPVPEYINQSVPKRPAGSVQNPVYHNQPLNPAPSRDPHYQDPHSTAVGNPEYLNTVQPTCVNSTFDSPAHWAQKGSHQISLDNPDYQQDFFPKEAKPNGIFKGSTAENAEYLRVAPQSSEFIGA
# assay.procedure: Lance assay, EGFR T790M L858R
# condition.parameters: biochemical Lance assay
IC50 values by entry

Some solved entries appear below for comparison.
line.notation | IC50
C=CC(=O)Nc1cc(-c2c(-c3cnn(CCN(C)C)c3)[nH]c3ncc(C(=O)OC(C)C)c(C)c23)ccc1C | ≤ 50 nM
C=CC(=O)Nc1cc(-c2c(-c3cnn(C)c3)[nH]c3ncc(-c4cnn(CCOC)c4)cc23)ccc1C | ≤ 50 nM
C=CC(=O)Nc1cc(-c2c(-c3cnn(C)c3)[nH]c3ncc(-c4cn(C)nc4C)cc23)ccc1C | ≤ 50 nM

Name the reported IC50 value associated with the molecule C=CC(=O)Nc1cc(-c2c(-c3cnn(C)c3)[nH]c3ncc(-c4cnn(C5COC5)c4)cc23)ccc1C
≤ 50 nM

Another molecule: C=CC(=O)Nc1cc(-c2c(-c3cnn(CCO)c3)[nH]c3ncc(C(=O)OC(C)C)c(C)c23)ccc1C
50 to 100 nM

----------
Below: a set of entries, each annotated with reported pIC50.
# Tested on: EGFR vIII Ba/F3
# assay.procedure: CellTiter-Glo cell viability, EGFR vIII Ba/F3
# Assay type: cell-based
# condition.parameters: Mus musculus, BaF3, 72 h, read-out: EGFR vIII Ba/F3 CTG IC50 /
pIC50: −log10 of the molar value.

Worked examples, 6 molecules total:
molecule | pIC50
C=CC(=O)Nc1cc(-c2c(-c3cnn(C)c3)[nH]c3ncc(-c4cnn(CC(C)C)c4)cc23)ccc1C [Example 32] | ≥ 7.30
C=CC(=O)Nc1cc(-c2c(-c3cnn(CCOC)c3)[nH]c3ncc(C(=O)OC(C)C)c(C)c23)ccc1C [Example 11] | 6.30 to 7.00
C=CC(=O)Nc1cc(-c2c(-c3cn[nH]c3)[nH]c3ncc(C(=O)OC(C)C)c(C)c23)ccc1C [Example 20] | 6.30 to 7.00
C=CC(=O)Nc1cc(-c2c(-c3cnn(C)c3)[nH]c3ncc(-c4cnn(C5COC5)c4)cc23)ccc1C [Example 35] | 6.30 to 7.00
C=CC(=O)Nc1cc(-c2c(-c3cnn(CC)c3)[nH]c3ncc(C(=O)OC(C)C)cc23)ccc1C [Example 6] | 6.30 to 7.00
C=CC(=O)Nc1cc(-c2c(-c3cnn(Cc4ccccc4)c3)[nH]c3ncc(C(=O)OC(C)C)c(C)c23)ccc1C [Example 9] | 6.30 to 7.00

Continue with the next molecule.
Any idea what pIC50 was measured for C=CC(=O)Nc1cc(-c2c(-c3cnn(C)c3)[nH]c3ncc(-c4ccnn4C)cc23)ccc1C [Example 27] ?
≥ 7.30

----------
Reported pIC50 values follow for various compounds
# Test system: Cuto-17
# assay.procedure: CellTiter-Glo cell viability, Cuto-17
# Format: cell-based
# condition.parameters: CUTO17, 72 h, read-out: Cuto-17 CTG IC50
pIC50: −log10 of the molar value.

Illustrative cases are given below, each with its answer.
compound | test.target | value
C=CC(=O)Nc1cc(-c2c(-c3cnn(C)c3)[nH]c3ncc(C(=O)OC(C)C)cc23)cc(F)c1C [Example 2, 2,2,2-trifluoroacetate] | Cuto-17 | 6.30 to 7.00
C=CC(=O)Nc1cc(-c2c(-c3cnn(CC4CC4)c3)[nH]c3ncc(C(=O)OC(C)C)c(C)c23)ccc1C | Cuto-17 | 6.30 to 7.00
C=CC(=O)Nc1cc(-c2c(-c3cnn(Cc4ccccc4)c3)[nH]c3ncc(C(=O)OC(C)C)c(C)c23)ccc1C | Cuto-17 | 6.00 to 6.30
C=CC(=O)Nc1cc(-c2c(-c3cnn(C)c3)[nH]c3ncc(O[C@@H](C)CC)cc23)ccc1C [Example 12, 2,2,2-trifluoroacetate] | Cuto-17 | 6.30 to 7.00
C=CC(=O)Nc1cc(-c2c(-c3cnn(CC)c3)[nH]c3ncc(C(=O)OC(C)C)cc23)ccc1C | Cuto-17 | 6.00 to 6.30

Let us move to another entry and its pIC50.
Item under review: C=CC(=O)Nc1cc(-c2c(-c3cnn(C)c3)[nH]c3ncc(OCC(C)C)cc23)ccc1C [Example 4, 2,2,2-trifluoroacetate] . Reported pIC50?
6.30 to 7.00

----------
# test.target: HER2 INS YVMA (Homo sapiens, UniProt P04626, INS775YVMA)
# assay.procedure: Lance Kinase Activity Assay, Her2 Exon 20 InsYVMA
# condition.parameters: biochemical Lance assay
assay.metric: IC50

Solved cases (3 shown):
compound | test.target | value
C=CC(=O)Nc1cc(-c2c(-c3cnn(C)c3)[nH]c3ncc(OCC(C)C)cc23)ccc1C [Example 4, 2,2,2-trifluoroacetate] | HER2 INS YVMA (Homo sapiens, UniProt P04626, INS775YVMA) | 50 to 100 nM
C=CC(=O)Nc1cc(-c2c(-c3cnn(C4CC4)c3)[nH]c3ncc(C(=O)OC(C)C)c(C)c23)ccc1C | HER2 INS YVMA (Homo sapiens, UniProt P04626, INS775YVMA) | 50 to 100 nM
C=CC(=O)Nc1cc(-c2c(-c3cnn(C)c3)[nH]c3ncc(OCC)cc23)cc(F)c1C [Example 3, 2,2,2-trifluoroacetate] | HER2 INS YVMA (Homo sapiens, UniProt P04626, INS775YVMA) | ≤ 50 nM

Form field - read-out: IC50; system: HER2 INS YVMA (Homo sapiens, UniProt P04626, INS775YVMA); submitted item: C=CC(=O)Nc1cc(-c2c(-c3cnn(CC4CC4)c3)[nH]c3ncc(C(=O)OC(C)C)c(C)c23)ccc1C
50 to 100 nM

Item: C=CC(=O)Nc1cc(-c2c(-c3cnn(C(C)C)c3)[nH]c3ncc(C(=O)OC(C)C)c(C)c23)ccc1C
100 to 500 nM

----------
# test.target: HER2 INS YVMA (Homo sapiens, UniProt P04626, INS775YVMA)
# assay.procedure: Lance Kinase Activity Assay, Her2 Exon 20 InsYVMA
# condition.parameters: biochemical Lance assay
Entries and their IC50

// known answers, use as guide
compound | IC50
C=CC(=O)Nc1cc(-c2c(-c3cnn(CC)c3)[nH]c3ncc(C(=O)OC(C)C)c(C)c23)ccc1C [Example 8] | ≤ 50 nM
C=CC(=O)Nc1cc(-c2c(-c3cnn(Cc4ccccc4)c3)[nH]c3ncc(C(=O)OC(C)C)c(C)c23)ccc1C [Example 9] | 500 to 1000 nM
C=CC(=O)Nc1cc(-c2c(-c3cn[nH]c3)[nH]c3ncc(C(=O)OC(C)C)c(C)c23)ccc1C [Example 20] | 50 to 100 nM
C=CC(=O)Nc1cc(-c2c(-c3cnn(C4CCC4)c3)[nH]c3ncc(C(=O)OC(C)C)c(C)c23)ccc1C [Example 16] | 500 to 1000 nM

Item C=CC(=O)Nc1cc(-c2c(-c3cnn(C)c3)[nH]c3ncc(-c4cnn(C5COC5)c4)cc23)ccc1C [Example 35] has what recorded IC50?
100 to 500 nM

Quick one: C=CC(=O)Nc1cc(-c2c(-c3cnn(C)c3)[nH]c3ncc(-c4cnn(C5CC5)c4)cc23)ccc1C [Example 31]
50 to 100 nM

// same read-out, input: C=CC(=O)Nc1cc(-c2c(-c3cnn(C)c3)[nH]c3ncc(-c4cnn(CC)c4)cc23)ccc1C [Example 28]
50 to 100 nM
